- EXPERIMENT_SUMMARY: Stability of the compound in EtOH at room temperature after 21 days by LC/MS analysis
- Format: physicochemical
- EXPERIMENTAL_CONTEXT: 504 h

{"TEST_SMILES": "CCOC(=O)c1cnc(N2CCN(C(=O)NS(=O)(=O)c3ccc(C)cc3)CC2)c(Cl)c1", "Stability": "Unstable"}
{"TEST_SMILES": "CCOC(=O)c1cnc(N2CCN(C(=O)NS(=O)(=O)c3ccc(Cl)cc3)CC2)c(Cl)c1", "Stability": "Unstable"}
{"TEST_SMILES": "CCOC(=O)c1cnc(N2CCC(NC(=O)NS(=O)(=O)c3ccccc3)CC2)c(Cl)c1", "Stability": "Unstable"}

###

- EXPERIMENT_SUMMARY: 1-octanol-phosphate buffer distribution coefficient, log D of the compound at pH 7.4 after 2 days by shake flask method
- Format: physicochemical
With a cut-off of 1, any logD at 48 h strictly below it is called Criterion met; any logD at 48 h meeting it or above is called Criterion not met.

{"COMPOUND": "CCOC(=O)c1cnc(N2CCC(NC(=O)NS(=O)(=O)c3ccccc3)CC2)c(Cl)c1", "ANSWER_LABEL": "Criterion not met"}
{"COMPOUND": "CCOC(=O)c1cc(C#N)c(N2CCN(C(=O)NS(=O)(=O)Cc3ccccc3)CC2)nc1C", "ANSWER_LABEL": "Criterion met"}
{"COMPOUND": "COC(=O)c1cnc(N2CCN(C(=O)NS(=O)(=O)c3ccc(Cl)s3)CC2)c(Cl)c1", "ANSWER_LABEL": "Criterion met"}
{"COMPOUND": "CCOC(=O)c1cc(C#N)c(N2CCN(C(=O)NS(=O)(=O)c3ccc(F)cc3)CC2)nc1C(F)(F)F", "ANSWER_LABEL": "Criterion met"}
{"COMPOUND": "O=C(O)c1cnc(N2CCN(C(=O)NS(=O)(=O)c3ccccc3)CC2)c(Cl)c1", "ANSWER_LABEL": "Criterion met"}
{"COMPOUND": "CCOC(=O)c1cc(C#N)c(N2CC3CN(C(=O)NS(=O)(=O)c4ccccc4)CC3C2)nc1C (stereo not drawn)", "ANSWER_LABEL": "Criterion met"}

Lab note: logD at 48 h threshold 1. Does this compound come in strictly under it? "CCOC(=O)c1cnc(N2CCN(C(=O)NS(=O)(=O)c3ccccc3Cl)CC2)c(Cl)c1"
Criterion met

Quick check: logD at 48 h of "CCCCOC(=O)c1cnc(N2CCN(C(=O)NS(=O)(=O)c3ccc(Cl)s3)CC2)c(Cl)c1" under 1?
Criterion not met

Please state whether logD at 48 h is below 1 for "CCOC(=O)c1cnc(N2CCN(C(=O)NS(=O)(=O)c3ccc(Cl)cc3)CC2)c(Cl)c1"
Criterion not met

Strictly below 1: is that where logD at 48 h of "CCCC(=O)c1cnc(N2CCN(C(=O)NS(=O)(=O)c3ccc(Cl)s3)CC2)c(Cl)c1" sits?
Criterion not met

###

Quick record: pIC50, P2Y purinoceptor 12 (Homo sapiens, UniProt Q9H244).
Expect pIC50 as a plain number equal to -log10 of the molar concentration.

{"TEST_SMILES": "CCOC(=O)c1cc(C#N)c(N2C[C@@H]3C[C@H]2CN3C(=O)NS(=O)(=O)c2ccc(Cl)s2)nc1C", "READOUT_NUMBER": 6.16}
{"TEST_SMILES": "CCOC(=O)c1cc(C#N)c(N2CCN(C(=O)NS(=O)(=O)c3ccc(F)cc3)CC2)nc1C(F)(F)F", "READOUT_NUMBER": 6.68}
{"TEST_SMILES": "CCOC(=O)c1cnc(N2CCN(C(=O)NS(=O)(=O)c3ccc(Cl)cc3)CC2)c(Cl)c1", "READOUT_NUMBER": 6.42}

Now consider the entry below.
So what pIC50 did "C=C(NC(=O)N1CCN(c2ncc(C(=O)OCC)cc2Cl)CC1)c1ccccc1" get with P2Y purinoceptor 12 (Homo sapiens, UniProt Q9H244)?
5.77
